In this section, each of the compounds is paired with its reported CC50 at 72 h.
assay: Cytotoxicity against African green monkey Vero cells incubated for 72 hrs by MTT assay; format: cell-based; conditions: chlorocebus sabaeus
Metric Name: CC50 at 72 h (µg/mL)

>>> result_number("COc1c(N2CCNC(C)C2)c(F)cc2c(=O)c(C(=O)O)cn(C3CC3)c12 (stereo not given)")
64
>>> result_number("COc1c(N2C[C@H]3CCCN(C(=O)Cn4cc(CN5C(=O)/C(=N/O)c6cccc(F)c65)nn4)[C@H]3C2)c(F)cc2c(=O)c(C(=O)O)cn(C3CC3)c12")
16
>>> result_number("CO/N=C1/C(=O)N(Cc2cn(CC(=O)N3CCC[C@@H]4CN(c5c(F)cc6c(=O)c(C(=O)O)cn(C7CC7)c6c5OC)C[C@@H]43)nn2)c2ccccc21")
128
>>> result_number("CO/N=C1/C(=O)N(Cc2cn(CC(=O)N3CCC[C@@H]4CN(c5c(F)cc6c(=O)c(C(=O)O)cn(C7CC7)c6c5OC)C[C@@H]43)nn2)c2c(F)cccc21")
16
>>> result_number("CO/N=C1/C(=O)N(Cc2cn(CC(=O)N3CCC[C@@H]4CN(c5c(F)cc6c(=O)c(C(=O)O)cn(C7CC7)c6c5OC)C[C@@H]43)nn2)c2ccc(F)cc21")
32
